Target: Retinoic acid receptor RXR-alpha (Homo sapiens)
Assay: Transcriptional activation in CV-1 cells expressing Retinoic acid receptor RXR-alpha
Assay type: cell-based, Cercopithecidae
readout.type: AC50

INSERT INTO assay_data (smiles_record, data_value) VALUES
  ('CC1(C)CCC(C)(C)c2cc(-c3ccc4cc(C(=O)O)ccc4c3)ccc21', '> 1 µM'),
  ('CC1(C)CCC(C)(C)c2cc(-c3cccc(-c4ccc(C(=O)O)cc4)n3)ccc21', '> 1 µM'),
  ('Cc1ccc(-c2ccc(C(=O)O)cc2)cc1-c1cc2c(cc1C)C(C)(C)CCC2(C)C', '0.43 µM'),
  ('Cc1cc2c(cc1-c1cccc(-c3ccc(C(=O)O)cc3)n1)C(C)(C)CCC2(C)C', '> 1 µM'),
  ('Cc1cc2c(cc1-c1ncc(-c3ccc(C(=O)O)cc3)s1)C(C)(C)CCC2(C)C', '> 1 µM');

---

Biological target: UniProt P10276
Sequence (P10276 whole entry): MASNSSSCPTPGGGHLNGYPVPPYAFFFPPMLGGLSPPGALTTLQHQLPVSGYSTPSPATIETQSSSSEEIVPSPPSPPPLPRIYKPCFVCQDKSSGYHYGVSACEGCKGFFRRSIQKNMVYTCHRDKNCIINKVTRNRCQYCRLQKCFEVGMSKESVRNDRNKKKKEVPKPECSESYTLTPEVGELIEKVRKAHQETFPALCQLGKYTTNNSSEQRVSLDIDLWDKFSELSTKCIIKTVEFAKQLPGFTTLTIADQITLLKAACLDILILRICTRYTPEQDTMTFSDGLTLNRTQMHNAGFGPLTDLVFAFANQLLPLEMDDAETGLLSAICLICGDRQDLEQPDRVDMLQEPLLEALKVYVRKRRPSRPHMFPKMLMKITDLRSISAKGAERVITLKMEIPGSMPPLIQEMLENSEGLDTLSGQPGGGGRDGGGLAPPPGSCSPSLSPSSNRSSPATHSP
Assay: Transcriptional activation in CV-1 cells expressing Retinoic acid receptor alpha
Format: cell-based, Cercopithecidae
Examples of compounds with documented AC50 follow.
readout.type: AC50 (nM)

INSERT INTO results (smiles_record, sign, data_value) VALUES
  ('Cc1cc2c(cc1-c1ncc(-c3ccc(C(=O)O)cc3)s1)C(C)(C)CCC2(C)C', '>', 1000),
  ('Cc1cc2c(cc1-c1cccc(-c3ccc(C(=O)O)cc3)n1)C(C)(C)CCC2(C)C', '>', 1000),
  ('CC1(C)CCC(C)(C)c2cc(-c3cccc(-c4ccc(C(=O)O)cc4)n3)ccc21', '=', 370),
  ('Cc1ccc(-c2ccc(C(=O)O)cc2)cc1-c1cc2c(cc1C)C(C)(C)CCC2(C)C', '>', 1000),
  ('CC1(C)CCC(C)(C)c2cc(-c3ccc4cc(C(=O)O)ccc4c3)ccc21', '>', 1000),
  ('Cc1ccc(-c2ccc(C(=O)O)cc2)cc1-c1ccc2c(c1)C(C)(C)CCC2(C)C', '=', 79),
  ('CC1(C)CCC(C)(C)c2cc(-c3cccc(-c4ccc(C(=O)O)cc4)c3)ccc21', '=', 1);

---

Biological target: Retinoic acid receptor RXR-alpha (Homo sapiens) (UniProt P19793)
Assay: Percent activation of Retinoic acid receptor RXR-alpha at 1 uM relative to 1 uM 9-cis-retinoic acid
Examples of molecules with documented Activation follow.
readout.type: Activation (%)

INSERT INTO assay_data (smiles_record, data_value) VALUES
  ('Cc1cc2c(cc1-c1cccc(-c3ccc(C(=O)O)cc3)n1)C(C)(C)CCC2(C)C', 0),
  ('CC1(C)CCC(C)(C)c2cc(-c3cccc(-c4ccc(C(=O)O)cc4)c3)ccc21', 27),
  ('Cc1cc2c(cc1-c1ncc(-c3ccc(C(=O)O)cc3)s1)C(C)(C)CCC2(C)C', 8),
  ('CC1(C)CCC(C)(C)c2cc(-c3ccc4cc(C(=O)O)ccc4c3)ccc21', 0),
  ('C/C(=C\c1ccc(C(=O)O)cc1)c1ccc2c(c1)C(C)(C)CCC2(C)C', 0),
  ('Cc1ccc(-c2ccc(C(=O)O)cc2)cc1-c1ccc2c(c1)C(C)(C)CCC2(C)C', 85),
  ('Cc1ccc(-c2ccc(C(=O)O)cc2)cc1-c1cc2c(cc1C)C(C)(C)CCC2(C)C', 70),
  ('CC1(C)CCC(C)(C)c2cc(-c3cccc(-c4ccc(C(=O)O)cc4)n3)ccc21', 17);

---

Target: Retinoic acid receptor RXR-alpha (Homo sapiens)
Sequence (P19793 whole entry): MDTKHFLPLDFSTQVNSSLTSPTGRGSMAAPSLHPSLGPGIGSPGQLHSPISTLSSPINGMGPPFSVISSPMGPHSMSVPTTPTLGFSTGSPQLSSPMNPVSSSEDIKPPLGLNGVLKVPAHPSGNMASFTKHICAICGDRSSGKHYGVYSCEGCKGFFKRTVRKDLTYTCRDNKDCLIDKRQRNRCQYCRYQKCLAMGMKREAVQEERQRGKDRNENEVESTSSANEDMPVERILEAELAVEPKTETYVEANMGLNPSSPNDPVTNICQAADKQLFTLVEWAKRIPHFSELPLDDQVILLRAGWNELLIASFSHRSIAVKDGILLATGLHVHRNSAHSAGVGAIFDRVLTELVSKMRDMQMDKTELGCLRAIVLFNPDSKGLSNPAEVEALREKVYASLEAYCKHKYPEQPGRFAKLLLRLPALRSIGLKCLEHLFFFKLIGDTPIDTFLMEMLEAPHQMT
Experiment: Transcriptional activation in CV-1 cells expressing Retinoic acid receptor RXR-alpha
Type: cell-based, Cercopithecidae
readout.type: AC50

INSERT INTO measurements (smiles_record, data_value) VALUES
  ('CC1(C)CCC(C)(C)c2cc(-c3cccc(-c4ccc(C(=O)O)cc4)c3)ccc21', '> 1000 nM'),
  ('C/C(=C\c1ccc(C(=O)O)cc1)c1ccc2c(c1)C(C)(C)CCC2(C)C', '> 1000 nM'),
  ('Cc1ccc(-c2ccc(C(=O)O)cc2)cc1-c1ccc2c(c1)C(C)(C)CCC2(C)C', '135 nM');

---

Target: Retinoic acid receptor beta (Homo sapiens, UniProt P10826)
Sequence (P10826 whole entry): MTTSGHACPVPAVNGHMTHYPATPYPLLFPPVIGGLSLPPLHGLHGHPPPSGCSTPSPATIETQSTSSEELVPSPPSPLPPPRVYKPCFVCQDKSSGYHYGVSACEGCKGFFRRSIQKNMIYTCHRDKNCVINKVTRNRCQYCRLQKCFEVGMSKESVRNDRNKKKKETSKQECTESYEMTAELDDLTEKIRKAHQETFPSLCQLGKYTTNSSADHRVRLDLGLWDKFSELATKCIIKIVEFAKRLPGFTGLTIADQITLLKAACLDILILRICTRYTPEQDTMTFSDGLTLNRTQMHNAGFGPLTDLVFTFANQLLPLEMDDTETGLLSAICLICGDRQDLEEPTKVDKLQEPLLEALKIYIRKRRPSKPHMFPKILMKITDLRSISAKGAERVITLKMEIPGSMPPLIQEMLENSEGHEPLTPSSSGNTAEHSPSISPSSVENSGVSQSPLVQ
Experiment: Transcriptional activation in CV-1 cells expressing Retinoic acid receptor beta
Format: cell-based, Cercopithecidae
Hi! Just check whether AC50 is below 0.01 µM. Below gives true, equal or above gives false.

INSERT INTO results (smiles_record, cat) VALUES
  ('Cc1cc2c(cc1-c1ncc(-c3ccc(C(=O)O)cc3)s1)C(C)(C)CCC2(C)C', 'false'),
  ('Cc1ccc(-c2ccc(C(=O)O)cc2)cc1-c1ccc2c(c1)C(C)(C)CCC2(C)C', 'true'),
  ('Cc1cc2c(cc1-c1cccc(-c3ccc(C(=O)O)cc3)n1)C(C)(C)CCC2(C)C', 'false'),
  ('CC1(C)CCC(C)(C)c2cc(-c3cccc(-c4ccc(C(=O)O)cc4)c3)ccc21', 'true'),
  ('CC1(C)CCC(C)(C)c2cc(-c3ccc4cc(C(=O)O)ccc4c3)ccc21', 'false'),
  ('CC1(C)CCC(C)(C)c2cc(-c3cccc(-c4ccc(C(=O)O)cc4)n3)ccc21', 'false');

---

Target: Retinoic acid receptor gamma (Homo sapiens)
Sequence (P13631 whole entry): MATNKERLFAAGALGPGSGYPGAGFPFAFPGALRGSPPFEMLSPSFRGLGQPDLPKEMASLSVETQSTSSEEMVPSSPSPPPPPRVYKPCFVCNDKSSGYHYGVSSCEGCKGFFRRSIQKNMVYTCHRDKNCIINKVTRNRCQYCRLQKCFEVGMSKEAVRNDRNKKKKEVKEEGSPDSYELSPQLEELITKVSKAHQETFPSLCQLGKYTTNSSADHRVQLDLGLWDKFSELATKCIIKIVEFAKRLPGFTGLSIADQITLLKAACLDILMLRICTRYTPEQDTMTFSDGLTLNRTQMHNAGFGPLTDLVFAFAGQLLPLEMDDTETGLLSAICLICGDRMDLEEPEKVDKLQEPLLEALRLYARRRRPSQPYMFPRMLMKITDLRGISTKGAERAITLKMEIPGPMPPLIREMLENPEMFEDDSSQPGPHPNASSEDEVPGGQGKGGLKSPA
Test: Transcriptional activation in CV-1 cells expressing retinoic acid gamma receptor
Assay type: cell-based, Cercopithecidae
readout.type: AC50 (nM)

INSERT INTO results (smiles_record, sign, data_value) VALUES
  ('Cc1ccc(-c2ccc(C(=O)O)cc2)cc1-c1cc2c(cc1C)C(C)(C)CCC2(C)C', '=', 1),
  ('Cc1cc2c(cc1-c1cccc(-c3ccc(C(=O)O)cc3)n1)C(C)(C)CCC2(C)C', '=', 1000),
  ('Cc1cc2c(cc1-c1ncc(-c3ccc(C(=O)O)cc3)s1)C(C)(C)CCC2(C)C', '=', 220),
  ('CC1(C)CCC(C)(C)c2cc(-c3ccc4cc(C(=O)O)ccc4c3)ccc21', '=', 68),
  ('CC1(C)CCC(C)(C)c2cc(-c3cccc(-c4ccc(C(=O)O)cc4)c3)ccc21', '=', 2.3),
  ('Cc1ccc(-c2ccc(C(=O)O)cc2)cc1-c1ccc2c(c1)C(C)(C)CCC2(C)C', '<', 1),
  ('CC1(C)CCC(C)(C)c2cc(-c3cccc(-c4ccc(C(=O)O)cc4)n3)ccc21', '>', 1000);

Data origin: ChEMBL document CHEMBL1133193
